system: 958667-338-R-J2-PDC tumor spheroids viability; assay: Anticancer human tumor 958667-338-R-J2-PDC patient-derived colon adenocarcinoma cell line growth inhibition [PI3K]; conditions: second compound 0.1 µM; first compound 0.001 µM; stronger effect = lower value; spheroids with HUVEC and MSC
measured-endpoint: viability, T/C

Please report the measured viability, T/C for Cn1ncnc1[C@H]1c2n[nH]c(=O)c3cc(F)cc(c23)N[C@@H]1c1ccc(F)cc1 + CC(Nc1ncnc2nc[nH]c12)c1cc2cccc(Cl)c2c(=O)n1-c1ccccc1
82.8%

Please report the measured viability, T/C for CC(C)n1nc(-c2ccc3oc(N)nc3c2)c2c(N)ncnc21 + Cc1nc(NC(=O)N2CCCC2C(N)=O)sc1-c1ccnc(C(C)(C)C(F)(F)F)c1
85.8%

Please report the measured viability, T/C for Cn1ncnc1[C@H]1c2n[nH]c(=O)c3cc(F)cc(c23)N[C@@H]1c1ccc(F)cc1 + CC(Nc1ccc2c(c1)OCCn1cc(N3C(=O)OCC3C(F)F)nc1-2)C(N)=O
82.4%

More entries:
Please report the measured viability, T/C for CC(C)n1nc(-c2ccc3oc(N)nc3c2)c2c(N)ncnc21 + COc1c(OCCCN2CCOCC2)ccc2c3n(c(=NC(=O)c4cnc(N)nc4)nc12)CCN3
66.1%

Please report the measured viability, T/C for Cn1ncnc1[C@H]1c2n[nH]c(=O)c3cc(F)cc(c23)N[C@@H]1c1ccc(F)cc1 + COc1c(OCCCN2CCOCC2)ccc2c3n(c(=NC(=O)c4cnc(N)nc4)nc12)CCN3
61.7%

----------
tested on: 958667-338-R-J2-PDC tumor spheroids viability; experiment: Anticancer human tumor 958667-338-R-J2-PDC cell line growth inhibition [PI3K]; details: second compound 0.0316 µM; first compound 0.00316 µM; stronger effect = lower value; spheroids with HUVEC and MSC;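 also: spheroids exposed to compounds for seven days before readout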
Let's look at some compounds and their measured viability, T/C.
Answer with a number only, understood to be in %.

Please report the measured viability, T/C for CC(C)n1nc(-c2ccc3oc(N)nc3c2)c2c(N)ncnc21 + COc1c(OCCCN2CCOCC2)ccc2c3n(c(=NC(=O)c4cnc(N)nc4)nc12)CCN3
70

Please report the measured viability, T/C for Cn1ncnc1[C@H]1c2n[nH]c(=O)c3cc(F)cc(c23)N[C@@H]1c1ccc(F)cc1 + COc1c(OCCCN2CCOCC2)ccc2c3n(c(=NC(=O)c4cnc(N)nc4)nc12)CCN3
98.4

Attention now turns to another entry.
Please report the measured viability, T/C for CCN1CCN(Cc2ccc(Nc3ncc(F)c(-c4cc(F)c5nc(C)n(C(C)C)c5c4)n3)nc2)CC1 + COc1c(OCCCN2CCOCC2)ccc2c3n(c(=NC(=O)c4cnc(N)nc4)nc12)CCN3
67.5

----------
system: 958667-338-R-J2-PDC tumor spheroids viability; assay: Anticancer human tumor 958667-338-R-J2-PDC cell line growth inhibition [PI3K]; conditions: second compound 1 µM; first compound 1 µM; stronger effect = lower value; spheroids with HUVEC and MSC;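 also: spheroids exposed to compounds for seven days before readout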
measured-endpoint: viability, T/C (%)
Answer with a number only, understood to be in %.

Some solved cases for reference:
Please report the measured viability, T/C for C#Cc1c(F)ccc2cc(O)cc(-c3ncc4c(N5CC6CCC(C5)N6)nc(OCC56CCCN5CC(F)C6)nc4c3F)c12 (stereo unspecified) + Cc1nc(NC(=O)N2CCCC2C(N)=O)sc1-c1ccnc(C(C)(C)C(F)(F)F)c1
65.7

Please report the measured viability, T/C for CC1(C)CCC(CN2CCN(c3ccc(C(=O)NS(=O)(=O)c4ccc(NCC5CCOCC5)c([N+](=O)[O-])c4)c(Oc4cnc5[nH]ccc5c4)c3)CC2)=C(c2ccc(Cl)cc2)C1 + Cc1nc(NC(=O)N2CCCC2C(N)=O)sc1-c1ccnc(C(C)(C)C(F)(F)F)c1
87.6

Please report the measured viability, T/C for CC(C)NCC(C(=O)N1CCN(c2ncnc3c2C(C)CC3O)CC1)c1ccc(Cl)cc1 (stereo unspecified) + CC(Nc1ncnc2nc[nH]c12)c1cc2cccc(Cl)c2c(=O)n1-c1ccccc1
101

More entries:
Please report the measured viability, T/C for CC1(C)CCC(Nc2ncc(C(F)(F)F)c(-c3c[nH]c4c(P(C)(C)=O)c(C#N)ccc34)n2)CN1 (stereo unspecified) + CC(Nc1ccc2c(c1)OCCn1cc(N3C(=O)OCC3C(F)F)nc1-2)C(N)=O
52.8

Please report the measured viability, T/C for CNC(=O)c1ccc(N2C(=S)N(c3ccc(C#N)c(C(F)(F)F)c3)C(=O)C2(C)C)cc1F + CC(Nc1ncnc2nc[nH]c12)c1cc2cccc(Cl)c2c(=O)n1-c1ccccc1
96.4

Please report the measured viability, T/C for CC(Cn1ccc(-c2ccc(C#N)c(Cl)c2)n1)NC(=O)c1cc(C(C)O)[nH]n1 (stereo unspecified) + CC(Nc1ncnc2nc[nH]c12)c1cc2cccc(Cl)c2c(=O)n1-c1ccccc1
112

Please report the measured viability, T/C for CCN1CCN(Cc2ccc(Nc3ncc(F)c(-c4cc(F)c5nc(C)n(C(C)C)c5c4)n3)nc2)CC1 + Cc1nc(NC(=O)N2CCCC2C(N)=O)sc1-c1ccnc(C(C)(C)C(F)(F)F)c1
45.5

Please report the measured viability, T/C for CC1(C)CCC(Nc2ncc(C(F)(F)F)c(-c3c[nH]c4c(P(C)(C)=O)c(C#N)ccc34)n2)CN1 (stereo unspecified) + Cc1nc(NC(=O)N2CCCC2C(N)=O)sc1-c1ccnc(C(C)(C)C(F)(F)F)c1
67.6

Please report the measured viability, T/C for CCCS(=O)(=O)Nc1ccc(F)c(C(=O)c2c[nH]c3ncc(-c4ccc(Cl)cc4)cc23)c1F + CC(Nc1ncnc2nc[nH]c12)c1cc2cccc(Cl)c2c(=O)n1-c1ccccc1
89.5

Please report the measured viability, T/C for C=CC(=O)N1CCN(c2nc(=O)n(-c3c(C)ccnc3C(C)C)c3nc(-c4c(O)cccc4F)c(F)cc23)C(C)C1 (stereo unspecified) + CC(Nc1ccc2c(c1)OCCn1cc(N3C(=O)OCC3C(F)F)nc1-2)C(N)=O
62.2

----------
Let's look at some compounds and their measured viability, T/C.
tested on: 958667-338-R-J2-PDC tumor spheroids viability; test: Anticancer human tumor 958667-338-R-J2-PDC cell line growth inhibition [PI3K]; details: second compound 1 µM; first compound 0.0316 µM; stronger effect = lower value; spheroids with HUVEC and MSC;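 also: spheroids exposed to compounds for seven days before readout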
Answer with a number only, understood to be in %.

Some solved cases for reference:
Please report the measured viability, T/C for C=CC(=O)N1CCN(c2nc(=O)n(-c3c(C)ccnc3C(C)C)c3nc(-c4c(O)cccc4F)c(F)cc23)C(C)C1 (stereo not drawn) + Cc1nc(NC(=O)N2CCCC2C(N)=O)sc1-c1ccnc(C(C)(C)C(F)(F)F)c1
94

Please report the measured viability, T/C for CC1(C)CCC(Nc2ncc(C(F)(F)F)c(-c3c[nH]c4c(P(C)(C)=O)c(C#N)ccc34)n2)CN1 (stereo not drawn) + COc1c(OCCCN2CCOCC2)ccc2c3n(c(=NC(=O)c4cnc(N)nc4)nc12)CCN3
19.9

Attention now turns to another entry.
Please report the measured viability, T/C for Cn1ncc(Cl)c1-c1cc(C(=O)NC(CN)Cc2cccc(F)c2)sc1Cl (stereo not drawn) + CC(Nc1ccc2c(c1)OCCn1cc(N3C(=O)OCC3C(F)F)nc1-2)C(N)=O
46.1

----------
Let's look at some compounds and their measured viability, T/C.
tested on: 958667-338-R-J2-PDC tumor spheroids viability; test: Anticancer human tumor 958667-338-R-J2-PDC cell line growth inhibition [PI3K]; conditions: second compound 1 µM; first compound 1 µM; stronger effect = lower value; spheroids with HUVEC and MSC;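 also: spheroids exposed to compounds for seven days before readout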
Answer with a number only, understood to be in %.

Please report the measured viability, T/C for C#Cc1c(F)ccc2cc(O)cc(-c3ncc4c(N5CC6CCC(C5)N6)nc(OCC56CCCN5CC(F)C6)nc4c3F)c12 (stereo not given) + COc1c(OCCCN2CCOCC2)ccc2c3n(c(=NC(=O)c4cnc(N)nc4)nc12)CCN3
15.9

Please report the measured viability, T/C for CNC(=O)c1ccc(N2C(=S)N(c3ccc(C#N)c(C(F)(F)F)c3)C(=O)C2(C)C)cc1F + COc1c(OCCCN2CCOCC2)ccc2c3n(c(=NC(=O)c4cnc(N)nc4)nc12)CCN3
18.3

Please report the measured viability, T/C for CC1(C)CCC(Nc2ncc(C(F)(F)F)c(-c3c[nH]c4c(P(C)(C)=O)c(C#N)ccc34)n2)CN1 (stereo not given) + COc1c(OCCCN2CCOCC2)ccc2c3n(c(=NC(=O)c4cnc(N)nc4)nc12)CCN3
15.8

Please report the measured viability, T/C for CCN1CCN(Cc2ccc(Nc3ncc(F)c(-c4cc(F)c5nc(C)n(C(C)C)c5c4)n3)nc2)CC1 + COc1c(OCCCN2CCOCC2)ccc2c3n(c(=NC(=O)c4cnc(N)nc4)nc12)CCN3
18.1

Attention now turns to another entry.
Please report the measured viability, T/C for Cn1ncc(Cl)c1-c1cc(C(=O)NC(CN)Cc2cccc(F)c2)sc1Cl (stereo not given) + CC(Nc1ncnc2nc[nH]c12)c1cc2cccc(Cl)c2c(=O)n1-c1ccccc1
75.9
